Test: NCI Yeast Anticancer Drug Screen. Data for the rad50 strain (AID 155);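 also: 0% = growth of vehicle-only cultures of the same strain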
Details: S. cerevisiae rad50 strain growth inhibition; at 50.0 µM
Experimental: Growth inhibition of yeast strains with defined genetic alterations is measured as a screen for potential anti-cancer activity. Selected strains with alterations in DNA damage repair or cell cycle control were exposed to compounds and growth inhibition was measured relative to vehicle treated controls. The strain used in this assay is rad50
Compounds without any hit were thinned out: in the full panel of roughly 79,000, 15% have a hit. The source made the active and inactive calls. Rule as the data show it: active = growth inhibition above about 70%; inactive = the rest.
Assign a class; possible classes are active, inactive

• O=C(O)CCCCCCC(=O)CCl = active
• CCN(CC)CCN(C)c1ccc(CO)c2c1C(=O)c1ccccc1S2=O (configuration not stated) = active
• Nc1cc(F)cc(F)c1[N+](=O)[O-] = inactive
• O=C1CSC(=S)N1c1ccc(I)cc1 = active
• O=c1oc(-c2ccccc2Br)ns1 = active

Assay result, entry O/N=C(/C[N+]12CN3CN(CN(C3)C1)C2)c1ccc(I)cc1 — outcome? active

Can you look up the reported call for Cn1c2c(c3ccccc31)CCN(CCN1CCN(c3ccccc3)CC1)C2=O for me? active

Any idea what this test logged for COC(=O)C1=C(C)NC(C)=C([N+](=O)[O-])C1c1cccc(N=O)c1 (configuration not stated) ? active

Look up the recorded call for CCc1ccc(/C=C/c2ccc([N+](=O)[O-])cc2)nc1 in this test. inactive

Short answer needed: outcome of this test for O=c1cccccc1O.O=c1cccccc1O.O=c1cccccc1O.[Ru] ? active

For Cc1ccc(S(=O)(=O)C2C=CC=CC=C2)cc1 , what call appears in the results of this test? active

Which outcome did this test record for the compound O=[N+]([O-])c1ccc(S(=O)/N=C/c2ccccc2)c([N+](=O)[O-])c1 (configuration not stated) ? inactive

Each compound tested received a call. Report the one for CCC(C)n1c(C)nc2c(N)cc(C(F)(F)F)cc21 (configuration not stated) . active

###

Test: NCI Yeast Anticancer Drug Screen. Data for the rad50 strain (AID 155);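 also: 0% = growth of vehicle-only cultures of the same strain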
Conditions: S. cerevisiae rad50 strain growth inhibition; at 5.0 µM (retest, dose inferred, filed as 0.5); active compounds read high
Compounds without any hit were thinned out: in the full panel of roughly 79,000, 15% have a hit.
Readings of growth inhibition for the listed molecules
Use % as the unit, but write only the number.

• C1=CC2OC1c1cc3ccccc3cc12 = 13

Identify measured growth inhibition associated with CC1=C(c2ccccc2)C(=O)OC1=O 5

Please list growth inhibition recorded for the molecule COc1ccc(/C=C/c2ccnnc2)c(OC)c1OC -7

Specify growth inhibition for O=C(NNc1ncccn1)c1ccc(C(=O)NNc2ncccn2)cc1 and stop. -2

Input CC[C@@H](C(=O)[C@@H](C)[C@@H](O)[C@H](C)CCc1ccc(C)c(O)c1C(=O)O)[C@H]1O[C@](CC)([C@H]2CC[C@](O)(CC)[C@H](C)O2)C[C@@H]1C , output reported growth inhibition. 36

Using known records, supply growth inhibition for CCOC(=O)c1ccc(N=Cc2cc(Cl)cc(Cl)c2O)cc1 67

Quickly give me recorded growth inhibition for CSC(=S)N/N=C\C(O)C(O)C(O)C(O)CO (stereo not drawn) -2

Identify measured growth inhibition associated with C1=c2ccccc2=C2C(=C(c3ccccc3)C(c3ccccc3)=NN2c2ccccc2)S1 -25

Recall and state the measured growth inhibition for O/N=C(/C[N+]12CN3CN(CN(C3)C1)C2)c1ccc(I)cc1 . 0

Read off the recorded growth inhibition for CC(O)C(O)C(O)C(O)C(O)C(=O)O (stereo not drawn) -2

Let me know recorded growth inhibition for N#Cc1c(-c2ccc(Cl)cc2)c2c(n(C3OC(CO)C(O)C(O)C3O)c1=S)CCCC2 (stereo not drawn) , thanks. -3

Provide one value: measured growth inhibition of O=C1NC(=S)S/C1=C/c1ccc(/C=C2/SC(=S)NC2=O)cc1 -16

Could you please provide reported growth inhibition for COC(=O)CCc1c(Cc2ccc[nH]2)[nH]c(C(=O)OCc2ccccc2)c1C ? Thanks! -20

Quick one: give measured growth inhibition for NC(=O)NNC(=O)NNC(N)=O -4

###

Test: NCI Yeast Anticancer Drug Screen. Data for the rad50 strain (AID 155);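 also: 0% = growth of vehicle-only cultures of the same strain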
Settings: S. cerevisiae rad50 strain growth inhibition; at 50.0 µM (retest, dose inferred, filed as 5.0)
Compounds without any hit were thinned out: in the full panel of roughly 79,000, 15% have a hit. Calls of active or inactive are those of the source. Rule as the data show it: active = growth inhibition above about 70%; inactive = the rest.
Can you answer with just one of these options? True for active, False for inactive

Look over these answered cases.
* O=C(NCCCl)N1CCC(CN=c2cc3n(-c4ccc(Cl)cc4)c4ccccc4nc-3cc2Nc2ccc(Cl)cc2)CC1 | True
* Oc1ccc(C/C=C/c2ccccc2)cc1O | True
* CCCCCCCCCCCCCCCC(=O)N1CC[N+](C)(CC2=CC3(Cl)C(Cl)=C(Cl)C2(Cl)C3(Cl)Cl)CC1 (stereo unspecified) | True
* CCCCCCCCCCCCCC1=NCC(C)(C)N1 | True
* Cc1cc(N)cc(C)c1-c1c(N)cc(Br)cc1Br | False

Which result was noted for this compound in the test: O=C1O/C(=C(/Cl)c2c3ccccc3cc3ccccc23)c2ccccc21 True

For CCC[CH2][Sn]([CH2]CCC)([O]C(=O)C1CCC(=O)N1)[O]C(=O)C1CCC(=O)N1 (stereo unspecified) , which call appears in the assay record? True

Lab log entry: Cc1cc(C)nc(NS(=O)(=O)c2ccc(NC(=O)c3cccnc3Nc3cccc(Cl)c3)cc2)n1 — outcome as called in the assay? False

Recorded test call requested for O=C1C(Cl)=C(Nc2ccc(S(=O)(=O)O)cc2)C(=O)c2ccccc21 True

Per the assay record, what outcome was assigned to Clc1ccc(CN2COc3c(ccc4cccnc34)C2)c(Cl)c1 ? True

Given COC1C(N)C(OC2C(Oc3cccc4c(O)c5c(=O)oc6ccc(C)c7c(=O)oc(c34)c5c67)OC(C)C(O)C2(C)O)OC(C)C1O (stereo unspecified) , state the outcome it received in this test. False

Which outcome was entered for the compound O=CC(O)CN1CCCC1 (stereo unspecified) in this test? False

Would you mind telling me which call this test gave C/C(=N\NC(=S)N1CCC(O)CC1)c1ccccn1 ? True

###

Test: NCI Yeast Anticancer Drug Screen. Data for the bub3 strain (AID 167)
Conditions: S. cerevisiae bub3 mutant strain, at 50.0 µM
This is part of a sample that, as a whole, favours compounds with a hit. Of some 79,000 tested, about 15% had one in any assay. Active and inactive are the calls of the source. Cut-off read from the data, not from the text of the source: active = growth inhibition above about 70%; inactive = the rest.
Allowed answers: TRUE = active, FALSE = inactive

A selection of reference data follows.
* CC(C)c1ccc(O)c(O)c(=O)c1 (tested in a mixture with another compound) | TRUE
* CCOC(=O)C(=Cc1ccccc1Br)C(=O)OCC | TRUE
* Nc1ccc(Oc2ccc(-c3ccccc3)cc2)c(Cl)c1 | TRUE
* Cc1ccc(S(=O)(=O)Oc2c([N+](=O)[O-])cc(C)cc2[N+](=O)[O-])cc1 | TRUE
* Cn1c(=O)c2c(nnc(-c3ccccc3)[n+]2[O-])n(C)c1=O | TRUE
* Cc1ccc(N2CCN(c3c(N)cncc3Br)CC2)cc1 | TRUE

So what was the verdict on O=C1c2ccccc2C(=O)C2OC12 (stereo unspecified) in this test? TRUE

Please let me know the test result on file for CC1=CC(O)(c2ccc(-c3ccccc3Cl)cc2)OC1=O (stereo unspecified) . TRUE

What classification did CC(C)C(OC(=O)c1ccc(NCC2=CC(=O)C=CC2=O)cc1)C(C)C end up with in this test? TRUE

Each molecule tested received a call. Report the one for COc1ccc(C2N(Cc3ccc(Cl)cc3)CCN2Cc2ccc(Cl)cc2)cc1 . FALSE

Called result for [N-]=[N+]=Nc1ccc(SN2C(=O)c3ccccc3C2=O)cc1 TRUE

###

Experiment: NCI Yeast Anticancer Drug Screen. Data for the sgs1 mgt1 strain (AID 161);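 also: 0% = growth of cultures given vehicle only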
Conditions: S. cerevisiae sgs1 mgt1 strain, at 50.0 µM (retest, dose inferred, filed as 5.0), active compounds read high
Experimental: Growth inhibition of yeast strains with defined genetic alterations is measured as a screen for potential anti-cancer activity. Selected strains with alterations in DNA damage repair or cell cycle control were exposed to compounds and growth inhibition was measured relative to vehicle treated controls. The strain used in this assay is sgs1 mgt1
The panel holds about 79,000 compounds, 15% with a hit somewhere; the sample as a whole holds those more often.
property_measured: growth inhibition (%)
Give just the number in %; leave the unit off.

Worked examples follow.
* COc1ccc(C2COc3c(ccc(O)c3O)C2)cc1OC (configuration not stated) | 66
* COc1ccc(C2=C(Cl)C(=O)N(c3ccc(Cl)cc3)C(=O)C2(Cl)Cl)cc1 | 96
* CC(=O)N(O)c1ccc2c(c1)Cc1cc(F)ccc1-2 | 35
* O=C(Nc1ccccc1)c1ccc([N+](=O)[O-])o1 | 82
* O/N=C(/CN1CCN(c2ccccc2)CC1)c1ccccc1 | -3

Tell me its growth inhibition given COc1ccc2sc3c(C)ccc(NCC4CCCN5CCCCC45)c3c(=O)c2c1 (configuration not stated) as the entry. 76

Specify growth inhibition for CC(C)c1ccc(C2C3=C(N=C4SCC(=O)N42)C(=O)c2ccccc23)cc1 (configuration not stated) and stop. 5

Quick one: give measured growth inhibition for COc1cc(C2c3cc4c(cc3C(OC3CCCCO3)C3COC(=O)C23)OCO4)cc(OC)c1OC (configuration not stated) 11

Given the compound CCCCCCC/C=C/C(=O)OC1C(OC2C(OC(CCCCCCC)CC(=O)OC(CCCCCCC)CC(=O)O)OC(C)C(O)C2O)OC(C)C(O)C1O (configuration not stated) , write its reported growth inhibition. 62

Hello, please tell me recorded growth inhibition for this one: CC(=O)Nc1nnc(-c2coc3ccccc3c2=O)s1 -3

Provide growth inhibition value for the following compound: Nc1nc(N)c(C(=O)SCc2ccccc2)nc1Cl 52
